Experimental target: RAC-alpha serine/threonine-protein kinase (Homo sapiens)
Assay protocol: Inhibition of PKBa at 10 uM
Observable: inhibition (%)

Study these solved cases before continuing.
CCONC(=O)c1cn(C)c(=O)c(F)c1Nc1ccc(Br)cc1F : 6
CCONC(=O)c1cn(C)c(=O)c(C)c1Nc1ccc(Br)cc1F : 6

(P) Cc1c(Nc2ccc(Br)cc2F)c(C(=O)NOCCO)cn(C)c1=O
(Q) CONC(=O)c1cn(C)c(=O)c(C)c1Nc1ccc(Br)cc1F
Query: Please indicate which item has the smaller measured inhibition: P versus Q Write down the label attached to your selection.
Result: P

====

Assay protocol: Half life in rat at 10 mg/kg, po
Assay type: ADME, organism-based
Design: dose 10 mg/kg, route oral
Condition notes: Sprague-Dawley, in vivo
Observable: half-life (min)

Study these solved cases before continuing.
CONC(=O)c1cn(C)c(=O)c(C)c1Nc1ccc(Br)cc1F : 282
Cn1cc(C(N)=O)c(Nc2ccc(Br)cc2F)c(F)c1=O : 660

(A) CCONC(=O)c1cn(C)c(=O)c(F)c1Nc1ccc(Br)cc1F
(B) CCONC(=O)c1cn(C)c(=O)c(C)c1Nc1ccc(Br)cc1F
(C) Cc1c(Nc2ccc(Br)cc2F)c(C(=O)NOCCO)cn(C)c1=O
Query: Order the records by half-life, with each subsequent value no larger than the one before. Output spec: labels arranged per the requested ranking.
Result: A, B, C
